Reference for the values: patent US20190010228A1

In this section, each of the binders is paired with its reported koff.
- target or test system: T1, human LRP5 domains E3-E4 (E644-Q1263 of SEQ ID NO: 42) (human, UniProt O75197 644-1263)
- T1 construct: Soluble fragment made in-house; It was biotinylated for phage sorting; also called LRP5-E3/E4; LRP5E3/E4
- T1 sequence: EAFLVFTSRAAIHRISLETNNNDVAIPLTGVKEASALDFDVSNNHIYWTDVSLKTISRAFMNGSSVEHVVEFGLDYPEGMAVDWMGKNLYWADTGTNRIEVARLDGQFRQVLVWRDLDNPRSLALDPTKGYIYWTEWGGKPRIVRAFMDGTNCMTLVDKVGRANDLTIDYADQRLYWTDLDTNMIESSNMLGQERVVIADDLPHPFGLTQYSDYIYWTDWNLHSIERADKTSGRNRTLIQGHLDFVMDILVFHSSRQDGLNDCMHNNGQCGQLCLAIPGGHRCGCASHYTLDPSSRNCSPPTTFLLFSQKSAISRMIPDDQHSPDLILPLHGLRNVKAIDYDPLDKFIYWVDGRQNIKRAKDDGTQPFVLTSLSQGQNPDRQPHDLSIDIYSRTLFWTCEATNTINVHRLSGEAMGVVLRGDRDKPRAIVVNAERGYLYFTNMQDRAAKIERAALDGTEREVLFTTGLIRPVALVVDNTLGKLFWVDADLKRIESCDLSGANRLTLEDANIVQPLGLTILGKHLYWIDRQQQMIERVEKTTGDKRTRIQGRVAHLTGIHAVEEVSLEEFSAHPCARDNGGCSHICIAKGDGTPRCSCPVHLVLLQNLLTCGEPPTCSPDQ
- assay protocol: SPR, BIAcore T100, IgG captured by anti-human Fc, LRP5E3/E4 as analyte, 25 C

Would you please look over these solved cases?
binder	koff
YW629.51 (antibody, human IgG1, V domains shown, also called P6C.51; bivalent LRP5 antibody (P6C.51)) VH: EVQLVESGGGLVQPGGSLRLSCAASGFTFSSYAMHWVRQAPGKGLEWVSRISSNGGSTYYADSVKGRFTISRDNSKNTLYLQMNSLRAEDTAVYYCARWIPQSYPFASYKSGFDYWGQGTLVTVSS VL: DIQMTQSPSSLSASVGDRVTITCRASQGISSYLAWYQQKPGKAPKLLIYDASSLESGVPSRFSGSGSGTDFTLTISSLQPEDFATYYCQQYYSYPFTFGQGTKVEIKR	0.00309 s⁻¹
YW629.51.13 (antibody, human IgG1, V domains shown, also called P6C.51.13) VH: EVQLVESGGGLVQPGGSLRLSCAASGFTFSSYAMHWVRQAPGKGLEWVSRISSNGGSTYYADSVKGRFTISRDNSKNTLYLQMNSLRAEDTAVYYCARWIPQSYPFRSYKSGFDYWGQGTLVTVSS VL: DIQMTQSPSSLSASVGDRVTITCRASQGISSYLAWYQQKPGKAPKLLIYDASSLESGVPSRFSGSGSGTDFTLTISSLQPEDFATYYCQQYYSYPFTFGQGTKVEIKR	0.000369 s⁻¹
YW629.51.78 (antibody, human IgG1, V domains shown, also called P6C.51.78) VH: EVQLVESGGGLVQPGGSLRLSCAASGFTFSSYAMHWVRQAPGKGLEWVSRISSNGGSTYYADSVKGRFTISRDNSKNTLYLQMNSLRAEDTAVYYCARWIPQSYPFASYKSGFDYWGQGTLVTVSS VL: DIQMTQSPSSLSASVGDRVTITCRASQGIFYYLAWYQQKPGKAPKLLIYDASTLESGVPSRFSGSGSGTDFTLTISSLQPEDFATYYCQQYYSYPFTFGQGTKVEIKR	7.24e-05 s⁻¹

Let's switch to this binder now.
query: koff lookup needed for YW629.51.61 (antibody, human IgG1, V domains shown, also called P6C.51.61; PC6.51.61) VH: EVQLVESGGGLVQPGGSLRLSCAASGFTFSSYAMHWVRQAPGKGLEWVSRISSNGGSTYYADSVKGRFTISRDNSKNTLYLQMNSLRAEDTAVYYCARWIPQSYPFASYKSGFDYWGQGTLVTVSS VL: DIQMTQSPSSLSASVGDRVTITCRASQVMGYYLAWYQQKPGKAPKLLIYDASSLESGVPSRFSGSGSGTDFTLTISSLQPEDFATYYCQQYYSYPFTFGQGTKVEIKR , thanks.
result: 0.000115 s⁻¹
